I'd be grateful if you could share measured IMAX for these entries.
# System: GR complex
# assay-method-text: [35S]TBPS binding assay (inhibition of [35S]TBPS binding, cerebral cortex P2 homogenate)
# Parameters: species or system rat
# protocol-conditions: maximum inhibition of [35S]TBPS binding
Answers are plain numbers, in %.

CC(=O)c1ccc(C#C[C@@]2(O)CC[C@@]3(C)[C@@H](CC[C@@H]4[C@@H]3CC[C@]3(C)[C@@H](C(C)=O)CC[C@@H]43)C2)cc1: 93
CC(=O)CCC#C[C@@]1(O)CC[C@@]2(C)[C@H](CC[C@@H]3[C@@H]2CC[C@]2(C)[C@@H](C(C)=O)CC[C@@H]32)C1: 101
CC(=O)[C@H]1CC[C@H]2[C@@H]3CC[C@@H]4C[C@@](O)(C#Cc5ccc(N(C)C)cc5)CC[C@]4(C)[C@H]3CC[C@]12C: 77
Cc1nccn1CC(=O)[C@H]1CC[C@H]2[C@@H]3CC[C@@H]4C[C@H](O)CC[C@]4(C)[C@H]3CC[C@]12C: 95
C[C@@]1(O)CC[C@@]2(C)[C@@H](CC[C@@H]3[C@@H]2CC[C@]2(C)[C@@H](C(=O)Cn4cccn4)CC[C@@H]32)C1: 98

Look at each compound and report its IMAX.
1. C[C@]12CC[C@@H](O)C[C@H]1CC[C@@H]1[C@@H]2CC[C@]2(C)[C@@H](C(=O)Cn3ccnc3)CC[C@@H]12
2. CC(=O)[C@H]1CC[C@H]2[C@@H]3CC[C@@H]4C[C@@](O)(C#Cc5ccc(C#N)cc5)CC[C@]4(C)[C@H]3CC[C@]12C
3. CC(=O)C1CCC2C3CCC4CC(O)(C#CCn5cncn5)CCC4(C)C3CCC12C (stereo not drawn)

[A]
57
92
99

Look at each compound and report its IMAX.
1. CC12CC(N3CCOCC3)C(O)CC1CCC1C2CCC2(C)C(C(=O)Cn3cncn3)CCC12 (stereo not drawn)
2. CCOC(=O)c1ccc(C#CC2(O)CCC3(C)C(CCC4C3CCC3(C)C(C(C)=O)CCC43)C2)cc1 (stereo not drawn)
3. C[C@]12CC[C@@H](O)C[C@@H]1CC[C@@H]1[C@@H]2CC[C@]2(C)[C@@H](C(=O)Cn3ccc(=O)[nH]c3=O)CC[C@@H]12

[A]
1: 97; 2: 79; 3: 90

Look at each compound and report its IMAX.
1. CC(=O)[C@H]1CC[C@H]2[C@@H]3CC[C@@H]4C[C@@](O)(C#Cc5ccc(Cl)cc5)CC[C@]4(C)[C@H]3CC[C@]12C
2. COc1ccc(C#CC2(O)CCC3(C)C(CCC4C3CCC3(C)C(C(C)=O)CCC43)C2)cc1 (stereo not drawn)

[A]
89
89

Look at each compound and report its IMAX.
1. CC(=O)[C@H]1CC[C@H]2[C@@H]3CC[C@@H]4C[C@@](O)(C#CCO)CC[C@]4(C)[C@H]3CC[C@]12C
2. COc1ccccc1C#C[C@@]1(O)CC[C@@]2(C)[C@H](CC[C@@H]3[C@@H]2CC[C@]2(C)[C@@H](C(C)=O)CC[C@@H]32)C1

[A]
1: 93; 2: 99

---

# study-system: GR complex
# assay-method-text: [35S]TBPS binding assay (inhibition of [35S]TBPS binding, cerebral cortex P2 homogenate)
# Design: species or system rat
# protocol-conditions: 2 nM [35S]TBPS, rat cerebral cortex P2 homogenate
# Method: We performed several experiments to determine the nature of the modulation of [^35S]TBPS as affected by the compounds of the invention. These procedures were performed as follows: Brains from male Sprague-Dawley rats were removed immediately following sacrifice and the cerebral cortices dissected over ice. […] Briefly, the cortices were gently homogenized in 0.32 M sucrose followed by centrifugation at 1000 x g for 10 minutes. The supernatant was collected and centrifuged at 9000 x g for 20 minutes. […]
I'd be grateful if you could share measured pIC50 for these entries.
Give bare numbers, as −log10 of the molar value.

Sample records with pIC50:
C[C@]12CC[C@@H](O)C[C@@H]1CC[C@@H]1[C@@H]2CC[C@]2(C)[C@@H](C(=O)CSS(=O)(=O)[O-])CC[C@@H]12.[Na+]: 6.88
CC(=O)[C@H]1CC[C@H]2[C@@H]3CC[C@@H]4C[C@@](O)(C#CCCCCO)CC[C@]4(C)[C@H]3CC[C@]12C: 6.65
C[C@]12CC[C@@H](O)C[C@H]1CC[C@@H]1[C@@H]2CC[C@]2(C)[C@@H](C(=O)Cn3cnc4cncnc43)CC[C@@H]12: 7.16

Look at each compound and report its pIC50.
1. CC1(O)CCC2(C)C(CCC3C2CCC2(C)C(C(=O)Cn4nccn4)CCC32)C1 (stereo not shown)
2. COCC1(O)CCC2(C)C(CCC3C2CCC2(C)C(C(=O)CSS(=O)(=O)[O-])CCC32)C1.[Na+] (stereo not shown)
3. CC(=O)[C@H]1CC[C@H]2[C@@H]3CC[C@@H]4C[C@@](O)(C#CCCC(N)=O)CC[C@]4(C)[C@H]3CC[C@]12C

[A]
1: 7.07; 2: 6.88; 3: 5.63

Provenance of the data: patent EP1038880B1
